- Tested on: MDA-MB-435
- METHOD: NCI tumour cell line growth inhibition, 48 h
Activity calls are given as the source filed them. No stated cut-off is given here; in the data, active = GI50 up to about 1.1 µM and inactive = higher.
Permitted responses: yes = active, no = inactive

- OC(c1ccc(-c2ccccc2)cc1)(c1ccc(-c2ccccc2)cc1)c1ccc(-c2ccccc2)cc1: no

*Q* Would you mind telling me which call this test gave CCOC(=O)C(Cl)(NC(=O)c1ccc(F)cc1)C(F)(F)F (stereo not given) ?
*A* no

====

// HCT-15 GI50 records

* CCCCCCCC[N+](C)(C)Cc1ccc(C[N+](C)(C)CCCCCCCC)cc1 | > 100000 nM
* CC(=O)SC(C[N+](=O)[O-])c1ccccc1 (stereo not given) | 2210 nM
* CC(O)CC(=O)CO[C@H]1[C@H](O)[C@@H](O)[C@@H](O)[C@@H]2NC(=O)c3c(cc4c(c3O)OCO4)[C@H]21 (stereo not given in full) | 256 nM
* CCN1CC2(C)CCC(OC)C34C5CC6CCC(O)(C5C(=O)O6)C(C(O)C23)C14 (stereo not given) | > 100000 nM

API: the following record is the query input.
Note to self: GI50 recorded for Cc1ccc(C(=O)C(Cl)C(Cl)c2ccc(C)cc2)cc1 (stereo not given) was 1830 nM

====

- Test system: KM12
- METHOD: NCI tumour cell line growth inhibition, 48 h
Calls of active or inactive are those of the source. Rule as the data show it: active = GI50 up to about 1.1 µM and inactive = higher.
Catalogue of molecules with associated GI50

Examples from the recorded data:
* CCOC(=O)C1(C(=O)OCC)CC=C(C)CC12C(=O)Nc1ccccc12 (configuration not stated) | > 100 µM (inactive)
* CC(C)CNC(=O)Cn1c(-c2ccccc2)cc2ccccc21 | > 100 µM (inactive)
* C=[N+](CNC(=O)CNC(=O)C(Cc1ccc([N+](=O)[O-])cc1)NC(=O)OC(C)(C)C)C(=O)CNC(=O)C(Cc1ccc([N+](=O)[O-])cc1)NC(=O)OC(C)(C)C (configuration not stated) | 53.1 µM (inactive)
* COc1cc(CNc2nc3cc(C(F)(F)F)ccc3nc2-c2ccccc2)cc(OC)c1OC | 14.8 µM (inactive)
* COc1ccc(-c2cc(-c3ccccc3)nc(/N=C\c3ccccc3)n2)c(O)c1 | 5.9 µM (inactive)
* CC(C)CC1NC(=O)CCC(NC(=O)C(Cc2ccc(O)cc2)NC(=O)OCc2ccccc2)C(=O)NC(Cc2ccccc2)C(=O)NC(Cc2ccccc2)NC1=O (configuration not stated) | > 100 µM (inactive)

Note to self: GI50 recorded for "Cc1ccccc1-c1cc(=O)c2cc(C)c(C)c(C(=O)O)c2o1" was > 100 µM (inactive)

Note to self: GI50 recorded for "C[C@H]1C[C@H]2[C@@H]3C(C)(C)O[C@]4(O)C(=O)[C@]5(O)[C@@H](C)CC[C@H]1[C@]25C(=O)[C@]34C" was 35.6 µM (inactive)

Note to self: GI50 recorded for "CN(CCCNC(=O)c1cn(C)c2c1ccc1cc(Cl)ccc12)CCCNC(=O)c1cn(C)c2c1ccc1cc(Cl)ccc12" was 1.72 µM (inactive)

Note to self: GI50 recorded for COc1cccc2c1C(=O)c1c(O)c3c(c(O)c1C2=O)C[C@@](O)(C(=O)CO)CC3OC1CC(N)C(OC2CCCCO2)C(C)O1 (some centres not stated) was 0.0399 µM (active)

Note to self: GI50 recorded for COC(=S)OC1CC(n2cnc3c(=O)[nH]cnc32)OC1CO[Si](C)(C)C(C)(C)C (configuration not stated) was > 100 µM (inactive)

Note to self: GI50 recorded for "Oc1cc(-c2ccc3ccccc3c2)nc2ncccc12" was 4.88 µM (inactive)

====

Catalogue of compounds with associated GI50
- System: NCI-H226
- METHOD: NCI tumour cell line growth inhibition, 48 h
Active and inactive are the calls of the source. Rule as the data show it: active = GI50 up to about 1.1 µM and inactive = higher.

Examples from the recorded data:
* CSc1nc2c(ncn2C2OCC(O)C(O)C2O)c(=O)[nH]1 (stereo not given) | > 100 µM (inactive)
* CN(C)CCNC(=O)c1cccc2nc3c4ccccc4c4ccccc4c3nc12 | 9.86 µM (inactive)
* Cc1cc2c(=O)cc(-c3ccc(Cl)cc3Cl)oc2c(C(=O)O)c1C | > 100 µM (inactive)

Note to self: GI50 recorded for "CCN(CC)CCCNc1ccc2nnn3c4ccc(O)cc4c(=O)c1c23" was 6.87 µM (inactive)

Note to self: GI50 recorded for COc1ccc2[nH]c3c(c2c1)CC(=S)N1CCCC(CC3=O)C1 (stereo not given) was 91.6 µM (inactive)

Note to self: GI50 recorded for "N#CC(C#N)=c1c(=O)c2c3ccccc3cc3cccc1c32" was > 100 µM (inactive)

Note to self: GI50 recorded for COc1ccc(CC(=O)N2CCC3(C)CC(=O)CC=C23)cc1OC (stereo not given) was > 100 µM (inactive)

Note to self: GI50 recorded for "O=C(/C=C/c1cc(F)ccc1F)OCCc1ccccc1" was > 100 µM (inactive)

Note to self: GI50 recorded for "CN(C(=O)c1ccccc1)c1ccc2c(c1)C(=O)c1ccccc1C2=O" was > 100 µM (inactive)

Note to self: GI50 recorded for COC1=C2CC(C)CC(OC)C(OC(=O)CN)[C@H](C)/C=C(\C)C(OC(N)=O)C(OC)/C=C\C=C(/C)C(=O)NC(=CC1=O)C2=O (stereo not given in full) was 10.4 µM (inactive)

====

- Tested on: A549
- METHOD: NCI tumour cell line growth inhibition, 48 h
The source made the active and inactive calls. Cut-off read from the data, not from the text of the source: active = GI50 up to about 1.1 µM and inactive = higher.
Permitted responses: active, inactive

Use the examples below as a reference point.
- COC(=O)[C@@]12C(=O)C(C)C(=O)[C@]1(C)C(C)=C[C@H]1[C@]3(C=O)CC[C@H](OC(C)=O)C(C)(C)[C@H]3CC[C@@]12C (stereo partly drawn): inactive
- CCOc1cc2c(cc1O)CC[C@@H]1[C@@H]2CC[C@]2(C)C(OS(=O)OC3CC[C@@H]4[C@H]5CCc6cc(O)c(OCC)cc6[C@@H]5CC[C@@]34C)CC[C@@H]12 (stereo partly drawn): active

*Q* Would you mind telling me which call this test gave "CC(C)CNC(=O)Cn1c(-c2ccccc2)cc2ccccc21" ?
*A* inactive

====

- Tested on: SK-MEL-28
- METHOD: NCI tumour cell line growth inhibition, 48 h
Activity calls are given as the source filed them. Cut-off read from the data, not from the text of the source: active = GI50 up to about 1.1 µM and inactive = higher.
MEASURE_NAME: GI50

* COc1cc(C2C(Cl)C(=O)N2NC(=O)c2ccccc2O)ccc1O (stereo not given) | > 100 µM (inactive)
* O=c1cc(NNc2ccc3ccccc3c2)[nH]c(=S)[nH]1 | 49.9 µM (inactive)
* O=C1C=C(c2ccccc2)O/C1=C\C(=O)c1ccc(Cl)cc1 | 19.9 µM (inactive)
* CCCCCCCCCC(=O)OCC1OC(n2cc(F)c(=O)[nH]c2=O)C(N)C(OC(=O)CCCCCCCCC)C1O (stereo not given) | 16.7 µM (inactive)
* O=c1[nH]c(Nc2nc3ccccc3[nH]2)nc(O)c1-c1ccccc1 | > 100 µM (inactive)

Note to self: GI50 recorded for COC(=O)/C(=N/NC(N)=O)C(C(=O)OC)C(=O)C(=O)Nc1ccc(Cl)cc1 (stereo not given) was > 100 µM (inactive)

Note to self: GI50 recorded for "COc1ccc(/C=C/C(=O)C(C)C)cc1" was > 100 µM (inactive)

Note to self: GI50 recorded for "CN/C(=N\n1cnnc1)OC" was > 100 µM (inactive)

Note to self: GI50 recorded for CCCCCn1cc2c3c(cccc31)C1C=C(C)CN(C)[C@@H]1C2.Cc1ccc(C(=O)OC(C(=O)O)C(OC(=O)c2ccc(C)cc2)C(=O)O)cc1 (stereo not given) was 6.93 µM (inactive)

Note to self: GI50 recorded for "C/C(=C1/CCC/C(=C(/C)c2ccccc2)C1=O)c1ccccc1" was 36.3 µM (inactive)

====

Catalogue of compounds with associated GI50
- Test system: A549
- METHOD: NCI tumour cell line growth inhibition, 48 h
Calls of active or inactive are those of the source. No stated cut-off is given here; in the data, active = GI50 up to about 1.1 µM and inactive = higher.

Examples from the recorded data:
- O=C(CCl)NNC1=Nc2ccc(Cl)cc2SC1: 9.33 µM (inactive)
- O=C(Cc1ccccc1)NNc1nc(NNC(=O)c2ccncc2)nc(Nc2cccc(Cl)c2)n1: > 10 µM (inactive)
- Cc1ccccc1NC(=O)Cc1csc(N/N=C2\C(=O)Nc3ccccc32)n1: 48.9 µM (inactive)
- CCN(CC)CCCNc1nc2ccccc2[n+]([O-])n1: > 100 µM (inactive)
- COC(=S)OC1CC(n2cnc3c(=O)[nH]cnc32)OC1CO[Si](C)(C)C(C)(C)C (stereo not given): > 100 µM (inactive)
- CN1CCN(C(=S)N(C(=O)c2ccco2)c2ccccc2)CC1: > 100 µM (inactive)
- COC(=O)[C@@H]1C=CCN1S(=O)(=O)c1ccc(C)cc1: > 100 µM (inactive)
- O=c1cc(-c2ccccc2)oc2cc(OCCCCCCCCCCOc3ccc4c(=O)cc(-c5ccccc5)oc4c3)ccc12: > 100 µM (inactive)

Note to self: GI50 recorded for O=C(CC1(O)C(=O)Nc2ccccc21)c1ccc(O)cc1O (stereo not given) was > 100 µM (inactive)

Note to self: GI50 recorded for "C[C@H]1C[C@H]2[C@@H]3C(C)(C)O[C@]4(O)C(=O)[C@]5(O)[C@@H](C)CC[C@H]1[C@]25C(=O)[C@]34C" was 41.6 µM (inactive)

The measurements presented in this section are drawn from ChEMBL document CHEMBL1201862.
